# Test system: Saccharomyces cerevisiae
# Test method notes: protein stability index of tFT-peptide fusion (C-terminal peptide) (PSI (0-1 scale)); higher = more stable (slower turnover)
# Measurement context: genetic background: wild type; temperature: 30 C
In this section we review reported protein stability index values for a set of sequences.
// no unit, no text: just the number

Solved cases (8 shown):
RRPAVIKALRGE [URE2 C-terminal 12 aa] | 0.693
GLKQKSTIVTVD [CDC5 C-terminal 12 aa] | 0.717
QYTQRVGRPNFE [YGR226C C-terminal 12 aa] | 0.674
DLDFLGSDIEFE [HFM1 C-terminal 12 aa] | 0.708
AWSYLARQVLYY [YGR176W C-terminal 12 aa] | 0.688
PEYDQVKQNNKE [YLR041W C-terminal 12 aa] | 0.676
RYAKIHEKHVSA [ASN2 C-terminal 12 aa] | 0.718
DKHEQPQIESPK [CFD1 C-terminal 12 aa] | 0.684

In: Endpoint output: protein stability index of YGCIALTVVFIL [YAR069C C-terminal 12 aa] . Value?
Out: 0.223

In: Consider next the sequence IPLVISYCISEE [ATX2 C-terminal 12 aa] in the same way.
Out: 0.596

In: Consider next the sequence VENTTVDFNYDM [YLR179C C-terminal 12 aa] in the same way.
Out: 0.681

In: Consider next the sequence KAERCQYRLVTA [YCR025C C-terminal 12 aa] in the same way.
Out: 0.508

In: Consider next the sequence DVEELREQLENC [AIM7 C-terminal 12 aa] in the same way.
Out: 0.723

* * *

# Tested on: Saccharomyces cerevisiae
# Test method notes: protein stability index of tFT-peptide fusion (C-terminal peptide) (PSI (0-1 scale)); higher = more stable (slower turnover)
# Measurement context: genetic background: wild type; temperature: 30 C
Experimental readout: protein stability index
// no unit, no text: just the number

EGDGQGWGGQGG | 0.702
KVLGRPVGMAYI | 0.666
GKEEGRETGREG | 0.741
SQLGDGLLGEGV | 0.697

Now consider a different sequence.
In: Endpoint output: protein stability index of `APPLPHSSSGSL` . Value?
Out: 0.698

* * *

# System: Saccharomyces cerevisiae
# Test method notes: protein stability index of tFT-peptide fusion (C-terminal peptide) (PSI (0-1 scale)); higher = more stable (slower turnover)
# Measurement context: genetic background: wild type; temperature: 37 C
Would you mind labelling by protein stability index? At or over 0.3 is t, under is f.

Worked examples follow.
NFTDMGRSLYIN | t
AKVSFYALARQY | t
TYYPLNRSRFIG | f
SSVGLFVLLCLV | t
LSVVVLVLCVLL | t
DWCACFFILLLA | f
EERKIFLKVVKV | t
LESYGLRDSTSG | t
FFYVFPFFIFRF | t
SLCPFLCILCFG | t

In: In plain terms: is recorded protein stability index at least 0.3 for `LFLLSVNLLLGY` ?
Out: f

In: Consider next the sequence `PVKGTMIKAKNT` in the same way.
Out: t

In: Consider next the sequence `LFFCYRVFLLVF` in the same way.
Out: f

In: Consider next the sequence `ALLYIVVGWSLS` in the same way.
Out: f

In: Consider next the sequence `FVVVGVLFLCVG` in the same way.
Out: t

In: Consider next the sequence `VCQVCVCFLFWR` in the same way.
Out: f

In: Consider next the sequence `KNGNVEILIKCT` in the same way.
Out: t

In: Consider next the sequence `ARWNTDRRRRQL` in the same way.
Out: t

In: Consider next the sequence `VCVVVLVGVVFL` in the same way.
Out: t

In: Consider next the sequence `YRGFFIGKLMLV` in the same way.
Out: f

In: Consider next the sequence `EWSRVVRWNWDG` in the same way.
Out: f

In: Consider next the sequence `RSCKSIRGIFVC` in the same way.
Out: t

* * *

In this section we review reported protein stability index values for a set of sequences.
# Tested on: Saccharomyces cerevisiae
# Test method notes: protein stability index of tFT-peptide fusion (C-terminal peptide) (PSI (0-1 scale)); higher = more stable (slower turnover)
# Measurement context: genetic background: wild type; temperature: 30 C
// no unit, no text: just the number

Solved cases (2 shown):
PSPLSLIPSSRP | 0.663
LLSPLLLLASLS | 0.534

In: Endpoint output: protein stability index of `QTLNTKEKREKE` . Value?
Out: 0.727

In: Consider next the sequence `SLYYPRLVSSSL` in the same way.
Out: 0.732

In: Consider next the sequence `GPEGSDMIDPWK` in the same way.
Out: 0.666

In: Consider next the sequence `NNSRTNDVRRRK` in the same way.
Out: 0.726

In: Consider next the sequence `SCLALLSLLIDF` in the same way.
Out: 0.57

In: Consider next the sequence `VVTFLCPLVGHV` in the same way.
Out: 0.478

* * *

# System: Saccharomyces cerevisiae
# Test method notes: protein stability index of tFT-peptide fusion (C-terminal peptide) (PSI (0-1 scale)); higher = more stable (slower turnover)
# Measurement context: genetic background: das1 deletion; temperature: 30 C
Would you mind labelling by protein stability index? At or over 0.7 is MET, under is NOT MET.

Worked examples follow.
QKRSCFFLANIH [YKL183C-A C-terminal 12 aa] | NOT MET
EIVGRYVVETSK [ADH5 C-terminal 12 aa] | NOT MET

In: In plain terms: is recorded protein stability index at least 0.7 for QPKKKRKKSILH [SPP41 C-terminal 12 aa] ?
Out: MET

* * *

# System: Saccharomyces cerevisiae
# Test method notes: protein stability index of tFT-peptide fusion (C-terminal peptide) (PSI (0-1 scale)); higher = more stable (slower turnover)
# Measurement context: genetic background: wild type; temperature: 30 C
Experimental readout: protein stability index
// no unit, no text: just the number

Solved cases (5 shown):
PLLHDSHAIIPH | 0.716
GQLIYQHIFILG | 0.468
SPPARLLASLSP | 0.798
GGVVGRPWWYVG | 0.425
SFLSLLLLSSSR | 0.7

In: Endpoint output: protein stability index of `SKKRKKNNAKTK` . Value?
Out: 0.713

In: Consider next the sequence `PPPGPLFPSFPL` in the same way.
Out: 0.663

In: Consider next the sequence `CCLLYPAVYTTQ` in the same way.
Out: 0.62

In: Consider next the sequence `LNVVLTRTSVRY` in the same way.
Out: 0.657

In: Consider next the sequence `LLGRPILINRPL` in the same way.
Out: 0.661

* * *

# System: Saccharomyces cerevisiae
# Test method notes: protein stability index of tFT-peptide fusion (C-terminal peptide) (PSI (0-1 scale)); higher = more stable (slower turnover)
# Measurement context: genetic background: cdc53-1; temperature: 37 C
Experimental readout: protein stability index
// no unit, no text: just the number

LFHSFFLYCLMS | 0.58
FSPSHMLRIFCY | 0.355
LPFFSFSPWWFY | 0.808
EGGLGDRLLGVG | 0.577

In: Endpoint output: protein stability index of `LLSLLLDPLLCL` . Value?
Out: 0.624

In: Consider next the sequence `GRWGGYVGREWG` in the same way.
Out: 0.522

In: Consider next the sequence `ACACFWVVWVGW` in the same way.
Out: 0.374

In: Consider next the sequence `SGWGCRMVVCAG` in the same way.
Out: 0.192

In: Consider next the sequence `GIFYVRTIWSCG` in the same way.
Out: 0.348

In: Consider next the sequence `LKFSLLLPVQVI` in the same way.
Out: 0.374

* * *

# Test system: Saccharomyces cerevisiae
# Test method notes: protein stability index of tFT-peptide fusion in deletion strain of DAS1 (PSI (0-1 scale)); higher = more stable (slower turnover)
Experimental readout: protein stability index
// no unit, no text: just the number

LKILRQKMAHQN | 0.673
MKHKKGQKQKIN | 0.649

In: Form field: protein stability index recorded for `LKILRQKMEHQN` with Saccharomyces cerevisiae (enter value)
Out: 0.671

In: Consider next the sequence `PSLAASFCRVVG` in the same way.
Out: 0.645

In: Consider next the sequence `KKHKKGRKQKIN` in the same way.
Out: 0.586

In: Consider next the sequence `VRGWVGGWRLVG` in the same way.
Out: 0.681

In: Consider next the sequence `LKILRSKMNHQN` in the same way.
Out: 0.666

In: Consider next the sequence `LKILRPKMNHQN` in the same way.
Out: 0.669

In: Consider next the sequence `RLLQPLPVQFLN` in the same way.
Out: 0.595

In: Consider next the sequence `FSMRWTTRYWVN` in the same way.
Out: 0.566

In: Consider next the sequence `LKILRQKMNHQNN` in the same way.
Out: 0.671

Ref: the supplement of paper PMC10724198
